pIC50: −log10 of the molar value.
We begin with pIC50 values for Histone deacetylase 8 (Homo sapiens), as collected from the published literature.

line_notation | pIC50
C/C=C1\NC(=O)c2ccc(F)c(n2)CNC(=O)C[C@@H](/C=C/CCSC(=O)CCCCCCC)OC(=O)[C@H](C)NC1=O | 7.43
Cn1cc(Cc2ccc([N+](=O)[O-])cc2)c2cc(C(=O)NO)ccc21 | > 7.00
FC(F)c1nnc(-c2cnc(NC3(c4ccccc4)CC3)nc2)o1 | < 4.52
O=C(NO)c1cnc2c(c1)CCN(CC13CC4CC(CC(C4)O1)C3)C2 | 4.00 to 5.00

====

# pIC50 against Histone deacetylase 8 (Homo sapiens, UniProt Q9BY41), merged from multiple literature sources
pIC50: −log10 of the molar value.
attribute_measured: pIC50

compound | attribute_measured | meas_value
CC[C@H]1Cc2c(F)cc(C(=O)NO)cc2CN1CC1C2CNCC1C2 (single isomer, unassigned) | pIC50 | 4.00 to 5.00
C/C=C1\NC(=O)c2nc(ccc2F)CNC(=O)C[C@@H](/C=C/CCSC(=O)CCCCCCC)OC(=O)[C@H](CC)NC1=O | pIC50 | 7.47
O=C(NO)c1cnc2c(c1)CCN([C@H]1C[C@@]3(CCOC3)C1)C2 | pIC50 | 4.00 to 5.00
CN1CC[C@]2(CC[C@@H](N3CCc4cc(C(=O)NO)cc(F)c4C3)C2)C1 (single isomer, unassigned) | pIC50 | 5.00 to 6.00

====

// read-out IC50, gathered for Histone deacetylase 8 (Homo sapiens) from published studies
attribute_measured: IC50

compound | meas_value
C=C1NC(=O)c2cccc(n2)CNC(=O)C[C@@H](/C=C/CCSC(=O)CCCCCCC)OC(=O)[C@H](C(C)C)NC1=O | 0.089 µM
CC[C@H]1CCCN1Cc1ccc(C(=O)NO)cc1F | 1 to 10 µM
O=C(NO)c1cc(F)c2c(c1)C[C@H]1COCCN1C2 (single isomer, unassigned) | > 100 µM
CC[C@@H]1Cc2c(F)cc(C(=O)NO)cc2CN1C1CC2(CCN(C(C)=O)CC2)C1 (single isomer, unassigned) | 10 to 100 µM
C/C=C1\NC(=O)c2cccc(n2)CNC(=O)C[C@@H](/C=C/CCSC(=O)CCCCCCC)OC(=O)[C@H](C)NC1=O | 0.071 µM
O=C(NO)c1cc(F)c2c(c1)CCN(CC13CC4CC(CC(C4)N1)C3)C2 | 10 to 100 µM
O=C(NO)c1cc(F)c2c(c1)CCN(C1CCC3(CCNCC3)C1)C2 (stereo not drawn) | 10 to 100 µM
O=C(NO)c1cc(F)c2c(c1)CCN([C@H]1C[C@@]3(CCCN(C4CC4)C3)C1)C2 (single isomer, unassigned) | 1 to 10 µM
C/C=C1\NC(=O)c2nc(ccc2SC)CNC(=O)C[C@@H](/C=C/CCSC=O)OC(=O)[C@H](C(C)C)NC1=O | 0.013 µM
C/C=C1\NC(=O)c2cccc(n2)CNC(=O)C[C@@H](/C=C/CCSC(=O)CCCCCCC)OC(=O)[C@H](C(C)C)NC1=O | 0.03 µM
O=C(NO)c1ncc2c(n1)CCN(C1CC3(CCCCC3)C1)C2 | > 100 µM
C/C=C1\NC(=O)c2ccc(SC)c(n2)CNC(=O)C[C@@H](/C=C/CCSC(C)=O)OC(=O)[C@H](CC)NC1=O | 0.042 µM
O=C(NO)c1cc(F)c2c(c1)C[C@@H]1COCCN1C2 (single isomer, unassigned) | > 100 µM
O=C(/C=C/c1ccccc1OC1CCN(C(=O)c2ccccc2)CC1)NO | ≤ 0.1 µM
CC[C@@H]1Cc2c(F)cc(C(=O)NO)cc2CN1CC1CC2(CCCCC2)C1 (single isomer, unassigned) | 0.1 to 1 µM
Cc1ccc(S(=O)(=O)Nc2ccc(/C=C/C(=O)Nc3ccccc3N)cc2)cc1 | > 50 µM
O=C(NO)c1cc(F)c2c(c1)CCN([C@H]1CCN(C3CC3)C3(CCC3)C1)C2 (single isomer, unassigned) | 10 to 100 µM
CCCCCCCC(=O)SCC/C=C/[C@@H]1CC(=O)NCc2cccc(n2)C(=O)NC(CC)C(=O)N[C@@H](C(C)C)C(=O)O1 (stereo partly drawn) | 0.102 µM
CC1(C)CC(N2CCc3cc(C(=O)NO)cc(F)c3C2)C1 | 10 to 100 µM
CC[C@@H]1Cc2c(F)cc(C(=O)NO)cc2CN1C1CC(C)(C)C1 (single isomer, unassigned) | 10 to 100 µM
CC[C@H]1Cc2c(F)cc(C(=O)NO)cc2CN1C1CC2(CCCCC2)C1 (single isomer, unassigned) | 10 to 100 µM
CN1CC2(C[C@H](N3CCc4cc(C(=O)NO)cc(F)c4C3)CCO2)C1 (single isomer, unassigned) | 10 to 100 µM
C/C=C1\NC(=O)c2cc(F)cc(n2)CNC(=O)C[C@@H](/C=C/CCSC(=O)CCCCCCC)OC(=O)[C@H](C)NC1=O | 0.038 µM
CC[C@@H]1Cc2c(F)cc(C(=O)NO)cc2CN1CC12CC3CC(CC(C3)C1)C2 (single isomer, unassigned) | 1 to 10 µM
O=C(NO)c1ccc2ccn(Cc3ccc(F)cc3)c2c1 | < 0.1 µM
O=C(NO)c1cc(F)c2c(c1)CCN(C[C@H]1CCC3(CCCCC3)C1)C2 (single isomer, unassigned) | 10 to 100 µM
O=C(NO)c1cc(F)c2c(c1)C[C@@H]1CC3(CCCCC3)CN1C2 (single isomer, unassigned) | 1 to 10 µM
O=C(NO)c1cnc2c(c1)CCN(C1CC3(CCOCC3)C1)C2 | 1 to 10 µM
O=C(/C=C/c1ccccc1)NO | 0.725 µM
O=C(NO)c1cc(F)c2c(c1)CCN(C1CCC3(CNC3)C1)C2 (stereo not drawn) | 10 to 100 µM

====

Here, molecules appear alongside IC50 reported for Histone deacetylase 8 (Homo sapiens) in the literature.
attribute_measured: IC50

molecule | meas_value
CN1CC2(CCC(CN3CCc4cc(C(=O)NO)cc(F)c4C3)CC2)C1 | 10 to 100 µM
CC[C@H]1Cc2c(F)cc(C(=O)NO)cc2CN1C1CC2(CCOCC2)C1 (single isomer, unassigned) | 10 to 100 µM
CC[C@H]1Cc2c(F)cc(C(=O)NO)cc2CN1C[C@]12CN[C@H](CO1)C2 (single isomer, unassigned) | 10 to 100 µM
C/C=C1\NC(=O)c2nc(ccc2F)CNC(=O)C[C@@H](/C=C/CCSC(C)=O)OC(=O)[C@H](Cc2ccc(O)cc2)NC1=O | 0.026 µM
FC(F)c1nnc(-c2ccc(Cn3cc(-c4ccc5nc(Cl)[nH]c5c4)nn3)nc2)o1 | 1.41 µM
O=C(NO)c1ccc2ccn(Cc3ccc4nonc4c3)c2c1 | < 0.1 µM
O=C(NO)c1cc(F)c2c(c1)CCN(C1CCC3(CC1)C[S+]([O-])C3)C2 (stereo not shown) | > 100 µM

====

Below: molecules with pIC50 recorded for Histone deacetylase 8 (Homo sapiens) in separate published works.
pIC50: −log10 of the molar value.

molecule | pIC50
O=C(NO)c1cc(F)c2c(c1)CCN(C1CCC13CCNCC3)C2 (stereo not drawn) | 5.00 to 6.00
O=C(NO)c1ccc2c(n1)CCN(C1CC3(CCCCC3)C1)C2 | < 4.00
CN1CC2(C[C@@H](N3CCc4cc(C(=O)NO)cc(F)c4C3)CCO2)C1 (single isomer, unassigned) | 5.00 to 6.00
O=C(NO)c1cc(F)c2c(c1)CCN([C@@H]1CCC3(CCCCC3)C1)C2 (single isomer, unassigned) | 4.00 to 5.00
C/C=C1\NC(=O)c2nccc(n2)CNC(=O)C[C@@H](/C=C/CCSC(C)=O)OC(=O)[C@H](C)NC1=O | 7.20
O=C(NO)c1cc(F)c2c(c1)CCN([C@H]1CC[C@@]13CCOC3)C2 (single isomer, unassigned) | 4.00 to 5.00
O=C(NO)c1ccc(Cn2nnc(-c3ccc(C(F)(F)F)cc3)n2)cc1 | 5.55
C/C=C1\NC(=O)c2cc(F)cc(n2)CNC(=O)C[C@@H](/C=C/CCSC(C)=O)OC(=O)[C@H](C(C)C)NC1=O | 7.42
O=C(Nc1cccc(-c2cn(Cc3ccc(-c4nnc(C(F)F)o4)c(F)c3)nn2)c1)N1CCOCC1 | < 3.70
O=C(/C=C/c1ccc(OCc2cccnc2)cc1Oc1cccc(Cl)c1)NO | ≥ 7.00
C/C=C1\NC(=O)c2nc(ccc2F)CNC(=O)C[C@@H](/C=C/CCSC(C)=O)OC(=O)[C@H](CCCCN)NC1=O | 6.34
CC[C@H]1Cc2c(F)cc(C(=O)NO)cc2CN1C1CC(C)(C)C1 (single isomer, unassigned) | 4.00 to 5.00
CC[C@H]1Cc2c(F)cc(C(=O)NO)cc2CN1C1CC2(CCN(C(C)=O)CC2)C1 (single isomer, unassigned) | 4.00 to 5.00
CN1CCCCC12CC(N1CCc3cc(C(=O)NO)cc(F)c3C1)C2 (stereo not drawn) | < 4.00
O=C(NO)c1cc(F)c2c(c1)CCN(C1CC[C@]13CCCO3)C2 (single isomer, unassigned) | 4.00 to 5.00
O=C(NO)c1cc(F)c2c(c1)CCN([C@@H]1CCN(Cc3ccccc3)C3(CCC3)C1)C2 (single isomer, unassigned) | 4.00 to 5.00
Fc1cccc(F)c1C1(Nc2ncc(-c3nnc(C(F)F)o3)cn2)CC1 | < 4.52
COc1cccc(Oc2ccccc2/C=C/C(=O)NO)c1 | ≥ 7.00
CC[C@@H]1Cc2c(F)cc(C(=O)NO)cc2CN1C1CC2(CCN(C)CC2)C1 (single isomer, unassigned) | < 4.00
O=C(NO)c1cc(F)c2c(c1)CCN(C[C@@]13CN[C@@H](CO1)C3)C2 | 5.00 to 6.00
CC(=O)N1CC2(CC(N3CCc4cc(C(=O)NO)cc(F)c4C3)C2)C1 | 4.00 to 5.00
C/C=C1\NC(=O)c2cc(F)cc(n2)CNC(=O)C[C@@H](/C=C/CCSC(C)=O)OC(=O)[C@H](CCCCNC(=O)OCC2c3ccccc3-c3ccccc32)NC1=O | 7.55
CN(C)Cc1ccc(OCCn2ccc3ccc(C(=O)NO)cc32)cc1 | > 6.00
C/C=C1\NC(=O)c2cccc(n2)CNC(=O)C[C@@H](/C=C/CCSC(C)=O)OC(=O)[C@H](C)NC1=O | 7.42
O=C(NO)c1cc(F)c2c(c1)CCN([C@@H]1CCC3(CCC3)C1)C2 (single isomer, unassigned) | 4.00 to 5.00
C/C=C1\NC(=O)c2nc(ccc2C)CNC(=O)C[C@@H](/C=C/CCSC(C)=O)OC(=O)[C@H](Cc2ccccc2)NC1=O | 7.59
COc1ccc(-c2ccnc(NCc3ccc(C(=O)Nc4ccccc4N)cc3)n2)cc1OC | < 4.30
O=C(NO)c1cnc2c(c1)CCN([C@H]1C[C@]3(CCOC3)C1)C2 | 4.00 to 5.00
O=C(NO)c1cc(F)c2c(c1)CCN(C[C@H]1CCCCO1)C2 (single isomer, unassigned) | 4.00 to 5.00
O=C(NO)c1cc(F)c2c(c1)CCN(C1CCC3(CCC3)CC1)C2 | 4.00 to 5.00
